Values compiled from patent US20250026849A1.

# tested.system: T1, CD123 (Homo sapiens (Human), UniProt P26951 19-305, limits assumed)
# T1 construct: also called CD123-Signal
# T1 sequence: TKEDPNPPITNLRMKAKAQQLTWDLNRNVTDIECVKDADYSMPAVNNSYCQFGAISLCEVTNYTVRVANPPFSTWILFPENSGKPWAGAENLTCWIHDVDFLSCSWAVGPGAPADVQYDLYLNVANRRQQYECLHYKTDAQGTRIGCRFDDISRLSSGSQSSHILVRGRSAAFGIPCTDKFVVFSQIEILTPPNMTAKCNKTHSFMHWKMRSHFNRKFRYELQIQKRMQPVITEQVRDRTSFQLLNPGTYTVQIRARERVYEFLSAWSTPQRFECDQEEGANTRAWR
# test.name: ELISA, format not described
# Parameters: unit not given here
parameter: ELISA_avg
Reply with the value as a number alone.

# annotated cases, reported ELISA_avg shown
D domain SEQ ID NO: 720 (designed binder) MGSWVEFYDRLDAIEHRLDALGGSEAELAAFEKEIAAFESELQAYKGKGNPEVEWLRDEAAFIRDMLQAYRHN; 3.4
D domain SEQ ID NO: 713 (designed binder) MGSWTEFDMRLDAIWDRLFALGGSEAELAAFEKEIAAFESELQAYKGKGNPEVEELREEAATIRGVLQAYRHN; 3.1
D domain SEQ ID NO: 727 (designed binder) MGSWWEFLDRLDAIEMRLFALGGSEAELAAFEKEIAAFESELQAYKGKGNPEVEYLREEAALIRNMLQAYRHN; 9

Incoming: Give its ELISA_avg value. Item: D domain SEQ ID NO: 733 (designed binder) MGSWNEFYDRLSAIYFRLQALGGSEAELAAFEKEIAAFESELQAYKGKGNPEVEHLRWYAADIRMILQAYRHN
Outgoing: 10.6

Incoming: Give its ELISA_avg value. Item: D domain SEQ ID NO: 683 (designed binder) MGSWWEFTDRLEAIEDRLWALGGSEAELAHFEDSIAQFEQELQWYKGKGNPEVEALADEADAIESELHAYRHN
Outgoing: 16.6
